All figures here come from PubChem BioAssay (NCI).

- Tested on: NCI-H322M lung
- TEST_PROTOCOL: NCI-60 one-dose screen, 48 h (100 = growth as untreated, 0 = no growth, -100 = all killed)
- CONDITION: 10 µM unless noted
About 83,000 compounds went through this panel and 20% of them were active in at least one assay; those are over-represented in the sample as a whole.
This section presents molecules with their documented growth values.
Give just the number in %; leave the unit off.

Here is how some molecules turned out for growth.
Cc1ccc(CNc2c3ccccc3nc3cc(NC(=O)CCN4CCCC4)ccc23)cc1	1.8
COc1cc2c(c(OC)c1OC)CCC(c1cccc(NC(=O)c3cccc(Br)c3)c1)O2 (configuration not stated)	98.5
CN1C(=O)NC(c2ccc3c(c2)OCO3)C=C1c1ccccc1 (configuration not stated)	92.4
CCOC(=O)CSc1nc2ccccc2c(=O)n1Cc1ccc(S(N)(=O)=O)cc1	99.7
O=C(CCN1CCCC1)Nc1ccc2c(NCCCCc3ccccc3)c3ccccc3nc2c1	-24.8
COc1ccc(C/C(C)=C(/c2ccc(OCCCN(C)C)cc2)c2ccc(OC(C)=O)cc2)cc1	94.5

Consider the molecule CCOC(=O)C1=C(C)NC(SCc2cc(=O)oc3ccc(F)cc23)=N[C@@H]1c1cccc2ccccc12 and give its measured growth.
102

Need growth of Cc1cc2c(c(C)c1Cl)C(=O)/C(=C/c1ccc(O)c(O)c1)O2 , thanks.
104

Using the record for COc1ccc2[nH]c(O)c(/C=c3/cc4c(c(-c5ccc(F)cc5)n3)=Nc3ccccc3-4)c2c1 , report its growth.
94

Entry under review: COc1cc(NCCCCCNC(C)(C)C)c2ncccc2c1 . Reported growth?
93.3

Query (molecule): COc1ccc(OC)c(CCn2cncc2-c2c[nH]c3ccccc23)c1 ; field requested: growth
82.8

# input molecule: CCCCN1C=CCN(CCCC)C1 ; wanted: its growth
75

Returns the measured growth for the input molecule. Input: CN(C)CCC(=O)c1ccc([N+](=O)[O-])cc1
104

Param item = COc1cc2oc(-c3cccc(C(=O)Nc4ccc5c(c4)OCO5)c3)cc(=O)c2c(O)c1OC ; retrieve measured growth.
81

Give its growth value. Item: CCN1C(=O)N(CC)C2Nn3c(s/c(=C\c4ccc(OC)cc4)c3=O)=NC21 (configuration not stated)
82.6

growth lookup needed for COc1ccc(C(=O)CC#N)cc1 , thanks.
120

Consider the molecule CC1(C)CC(=O)C2=C(C1)N(c1ccc(F)cc1F)C(N)=C(C#N)C2c1cc(Br)ccc1F (configuration not stated) and give its measured growth.
95.4

###

- Tested on: MALME-3M melanoma
- TEST_PROTOCOL: NCI-60 one-dose screen, 48 h (100 = growth as untreated, 0 = no growth, -100 = all killed)
- CONDITION: 10 µM unless noted
- Method: Cells are grown in 96 well plates and exposed to the test compound for 48 hours. Compounds are tested at a single concentration, which is 10^-5 M for most compounds. The reported endpoint is percent growth (GI% or GIPRCNT), where numbers from 0 - 100% represent growth inhibition, and numbers from -100% - 0 represent cell death. For example, a value of 40 represents 60% growth inhibition. A value of 0 means no net growth occurred over the course of the experiment. […]
The panel holds about 83,000 compounds, 20% with a hit somewhere; the sample as a whole holds those more often.
TEST_READOUT: growth (%)
Express the result in % but write the number alone.

COc1cc(C2=C(c3cn(C)c4ccccc34)COC2=O)cc(OC)c1OC	44.5
Cc1nc2ccc(Cl)cn2c1-c1nnc(SCc2ccc([N+](=O)[O-])cc2)o1	31.6
COc1ccc(NC(=O)c2cc(NCc3cc(O)ccc3O)ccc2O)cc1	108
NC(=S)N1N=C(c2ccccc2)CC1c1cn(-c2ccccc2)nc1-c1ccc(OCc2ccccc2)cc1 (stereo not drawn)	101
O=C(CCN1CCCC1)Nc1ccc2c(NCCCCc3ccccc3)c3ccccc3nc2c1	-88.7
C=C(C)[C@@H]1CC[C@]2(C(=O)N3CCN(C)CC3)CC[C@]3(C)[C@H](CC[C@@H]4[C@@]5(C)CC[C@H](O)C(C)(C)[C@@H]5CC[C@]43C)[C@@H]12	-73.1

Look up growth: C#CCNC(=O)[C@H](Cc1ccccc1)NC(=O)[C@]12CC[C@@H](C(=C)C)[C@@H]1[C@H]1CC[C@@H]3[C@@]4(C)CCC(=O)C(C)(C)[C@@H]4CC[C@@]3(C)[C@]1(C)CC2
88.8

Look up growth: CC1(C)CC(O)CCCCCCOc2c(CN)cccc2NC(=O)c2nc(cnc2N)-c2ccc(cc2)S1(=O)=O (stereo not drawn)
-71.5
